# STUDY TARGET: HLA-A*1101 (human)
# ASSAY INFO: inhibition of 125I probe peptide binding to purified HLA
Would you mind telling me the reported log10 IC50 of each entry?
Transform log10 | Measure IC50 | Unit µM

Check out these entries, answers already filled in.
>  <BINDER>
IVWKDIFHR (synthetic analog peptide) [Her2/neu.167.V2R9]

>  <log10 IC50>
-0.54

$$$$
>  <BINDER>
IVWKDIFHK (synthetic analog peptide) [Her2/neu.167.V2]

>  <log10 IC50>
-1.40

$$$$

Hello, I would appreciate it if you could give log10 IC50 for each entry below.
1. IVKGGVLIQK (synthetic analog peptide) [Her2/neu.148.V2K10]
2. IVKGGVLIQR (synthetic analog peptide) [Her2/neu.148.V2]
3. IVWLGLRSLR (synthetic analog peptide) [Her2/neu.450.V2]
4. HVVPWDQLFR (synthetic analog peptide) [Her2/neu.478.V2]
5. HTVPWDQLFR (synthetic peptide) [Her2/neu.478]
6. TVCAGGCAR (synthetic peptide) [Her2/neu.218]

Response:
1. -0.99
2. 0.88
3. 0.29
4. 0.12
5. -1.08
6. -0.58

Every entry's value here was drawn from patent US20040018971A1.
